# test-details: in vitro
# reported-conditions: human, hela cells, % viability
observable: viability at 28.5 h, 10 µM (%)
Answers are plain numbers, in %.

# example entries with known answers
O=C(Nc1cccc(Br)c1)C1CN(S(=O)(=O)c2ccccc2)CCN1S(=O)(=O)c1ccccc1 (centres unmarked) ... 79.7
Cc1ccc(C(=O)N[C@@H]2C[C@H](C)CC[C@H]2C(C)C)cc1C ... 87.1
CC1(C)NC(C)(C)C(=N\O)/C(=N\O)C/1=N\O ... 110
CC(C)NC(=O)c1sc2ccccc2c1C1CN(Cc2cccc3ncccc23)CCO1 (centres unmarked) ... 85.6
Cc1nc(C2CCCN(C(=O)c3cscn3)C2)c2sccn12 (centres unmarked) ... 88.2

Please report viability at 28.5 h, 10 µM for every entry that follows.
1. CCN1C(=O)/C(=C/c2cc3c(cc2Cl)OCO3)NC1=S
2. CC(C)CNC(=O)N(CCc1ccccc1)Cc1ccccc1
3. Cc1cc2ccccc2n2c(=O)n(Cc3cscn3)nc12
4. NS(=O)(=O)c1ccc(NC(=O)CSc2cccc3ccccc23)cc1
5. CC(=O)Nc1ccc(-c2cncc(NC(C)CCCC(C)(C)O)n2)cc1 (centres unmarked)

Return:
96.5
93.8
102
93.2
91.1

====

# test-details: in vitro
# reported-conditions: human, hela cells, % viability
Please provide measured viability at 28.5 h, 10 µM for the entries that follow.
Answers are plain numbers, in %.

# example entries with known answers
COc1ccc(S(=O)(=O)Nc2nc3c(s2)C(=O)CC(C)(C)C3)cc1 ... 94.7
Cc1cccc(OCC(=O)Nc2ccc(S(=O)(=O)N3CCOCC3)cc2)c1 ... 94.6
Cc1cnn(C2CN(CC(=O)N3CCc4sccc4C3)C2)c1 ... 86.8
CCc1c(C)nn(-c2ccccc2Cl)c1-c1ccccc1 ... 106
O=C1CCN(Cc2ccccc2)CCN1Cc1cccc(F)c1 ... 96.4
Nc1ncc(-c2ccc3c(c2)OCO3)nc1-c1ccc(O)cc1 ... 94.7
CC(C)N1CCC(N(C)Cc2c[nH]nc2C(C)(C)C)CC1 ... 92.9
CN(C(=O)c1cc(S(=O)(=O)N2CCOCC2)ccc1F)C1CCCCC1 ... 114
CCn1c(C(O)c2ccccc2)n[nH]c1=S (stereo not shown) ... 90.5

Let's switch to this compound now.
Enquiry: For the compound `Cc1c(Cl)cccc1NC(=S)N1CCC(C(N)=O)(N2CCCCC2)CC1` , give its measured viability at 28.5 h, 10 µM value.
Return: 112

====

# test-details: in vitro
# reported-conditions: human, hela cells, % viability
observable: viability at 28.5 h, 10 µM (%)
Numbers only, in %.

# example entries with known answers
COc1cc([N+](=O)[O-])c2[nH]c(C(=O)O)c(CCNC(C)=O)c2c1 ... 105
CC(C)(C)CC(C)(C)N=C(S)Nc1ccc2nc(-c3ccccn3)c(-c3ccccn3)nc2c1 ... 91

Please report viability at 28.5 h, 10 µM for every entry that follows.
1. COc1ccc(-c2cc3cccn(CC(=O)N(C)C)c-3n2)cc1
2. c1ccc(COc2ccc(-n3cnnn3)cc2)nc1
3. Cc1ccc2cc(S(=O)(=O)NCCC(=O)O)ccc2c1

Return:
1: 105; 2: 83.5; 3: 96.5

====

Please provide measured viability at 28.5 h, 10 µM for the entries that follow.
# test-details: in vitro
# reported-conditions: human, hela cells, % viability
Give bare numbers, in %.

COc1ccc(-n2ncc3c(N4CCN(Cc5ccccc5)CC4)ncnc32)cc1 ... 88.8
CC(=O)ON=C1c2cc(S(=O)(=O)N(C)C)ccc2-c2ccc(S(=O)(=O)N(C)C)cc21 ... 87.1
Cc1cccc(-n2cnc3cc(C(=O)NCc4cccnc4)ccc32)c1 ... 77.5
O=C(N/N=C\C=C\c1ccco1)c1ccc([N+](=O)[O-])cc1 ... 102
O=C(CNC(=O)c1ccco1)Nc1cccc(-c2nc3ccccc3s2)c1 ... 85.4

Please report viability at 28.5 h, 10 µM for every entry that follows.
1. COc1ccccc1CC(=O)N[C@@H]1CCN(Cc2cccnc2)C[C@H]1O
2. Nc1nncn1C(=O)c1ccccc1SCc1ccccc1
3. CC(=O)N1CCc2c(nc(N(C)C)nc2NCCCOC(C)C)C1
4. COc1cc2c(cc1OC)C1=NNC(=O)C1=NC(C)(C)C2
5. CCNC(=O)CN(CC)S(=O)(=O)c1cccc(C#N)c1
6. COc1cc(OC)c2nc(C(F)(F)F)cc(Cl)c2c1
7. CSc1nsc(NC(=O)Nc2ccccc2)n1

Return:
[100, 88.9, 84.4, 22.3, 90.1, 83.1, 97.9]

Please report viability at 28.5 h, 10 µM for every entry that follows.
1. Cc1ccc(C)n1-c1ccc(O)c(C(=O)O)c1
2. O=C(CSc1ncn(-c2ccccc2)n1)Nc1ccc(F)c(Cl)c1
3. CS(=O)(=O)c1ccc2nc(Nc3nc4c(F)cccc4s3)sc2c1
4. COc1cccc(-n2nnc3c(SCC(N)=O)ncnc32)c1

Return:
[94.2, 94.4, 101, 75]

====

# test-details: in vitro
# reported-conditions: human, hela cells, % viability
Please provide measured viability at 28.5 h, 10 µM for the entries that follow.
One number for each entry, in %.

Cc1cc(C(=O)NC(Cc2c[nH]c3ccccc23)C(=O)O)c(C)o1 (stereo not drawn) [CBK286560] ... 86.5
C[C@@H](Nc1cncc(-c2ccc(F)cc2F)n1)c1ccccc1 [CBK065676] ... 87
Cc1nn(C)cc1C(=O)N1CCC(c2cc3c(C)cccc3cn2)CC1 [CBK282231] ... 103

Please report viability at 28.5 h, 10 µM for every entry that follows.
1. O=C(Nc1cccc(Cn2cccn2)c1)c1csc2ccccc12 [CBK268123]
2. COC(=O)CN1C(=O)CC2(C1=O)C(=O)N(Cc1ccccc1)c1ccc(F)cc12 (stereo not drawn) [CBK075143]
3. CCOC(=O)C1(Cc2cc(-c3ccccc3)no2)CCCNC1 (stereo not drawn) [CBK284583]
4. COC(=O)CCc1ccc(S(=O)(=O)N2CCCN(Cc3c[nH]c(=O)[nH]c3=O)CC2)cc1 [CBK063082]
5. CCNC(=O)N[C@H]1C[C@@H](Cc2cc(CN(C)C)on2)C1(C)C [CBK289310]
6. Cc1ccc(C(=O)NC(CC(C)C)c2nnc3n2CCNCC3)c(F)c1 (stereo not drawn) [CBK306817]

Return:
[93.2, 95.7, 98.9, 113, 105, 85]

====

Please provide measured viability at 28.5 h, 10 µM for the entries that follow.
# test-details: in vitro
# reported-conditions: human, hela cells, % viability
Answers are plain numbers, in %.

# example entries with known answers
O=C(O)Cn1nnc(-c2ccc(OCc3cccc(C(F)(F)F)c3)cc2)n1 ... 97.7
CCOC(=O)C1(Cc2ccc(F)cc2F)CCCN(C(C)=O)C1 (stereo not shown) ... 106
Cc1nc2ccccc2c(C(=O)O)c1-c1ccccc1 ... 91.5

Please report viability at 28.5 h, 10 µM for every entry that follows.
1. O=C1N[C@H]2CCCN(C(=O)CCN3CCCC3)[C@H]2C/C=C/CCOc2ccccc21
2. CCCCNc1nccnc1-c1ccccc1
3. O=S(=O)(NCc1ccccc1)N1CCCCCC1
4. CN(Cc1cnn(C)c1)C(=O)C1CCCN1Cc1ccccn1 (stereo not shown)

Return:
1: 112; 2: 90.1; 3: 101; 4: 96

====

Please provide measured viability at 28.5 h, 10 µM for the entries that follow.
# test-details: in vitro
# reported-conditions: human, hela cells, % viability
One number for each entry, in %.

COCCNC(=O)c1cnc2ccc(OC)cc2c1O ... 95.9
C=CCNC(=O)C1(Cc2ccccc2-c2cccnc2)CCOCC1 ... 109

Please report viability at 28.5 h, 10 µM for every entry that follows.
1. CCOC(=O)c1csc(C2CCCN2C(=O)c2ccoc2C)n1 (centres unmarked)
2. O=C1CCC(=O)N1CCOc1nccnc1N1CCNCC1 [CBK074030T]
3. CS(=O)(=O)c1ccc(-c2ccc(COC3CCN(C(=O)Cc4cccc(C(F)(F)F)c4)CC3)cn2)cc1 [CBK162231T]

Return:
[109, 97.6, 102]

====

# test-details: in vitro
# reported-conditions: human, hela cells, % viability
Please provide measured viability at 28.5 h, 10 µM for the entries that follow.
One number for each entry, in %.

Please report viability at 28.5 h, 10 µM for every entry that follows.
1. Cc1nc2nc(N)nn2c(C)c1CCC(=O)NCc1ccccc1
2. COc1ccccc1OCCOc1cccc(/C=N/n2cnnc2)c1
3. Cc1c(C(=O)NCCCCn2ccnc2)oc2c(C)cccc12
4. Cc1cc(C)n(CCNC2CCN(c3ccccc3C)CC2)c(=O)n1
5. Cc1nc(C(F)(F)F)ccc1NC(=O)CSCC(=O)O
6. CCc1nn(CC(=O)NC(C)(C)C)c(=O)c2cc3sccc3n12
7. CCOC(=O)c1ccc(N2C(=O)CC(N3CCN(c4cccc(OC)c4)CC3)C2=O)cc1 (stereo not shown)

Return:
[95.7, 94.7, 99.9, 89.1, 93.3, 73.8, 101]
